- protocol: NCI Yeast Anticancer Drug Screen. Data for the sgs1 mgt1 strain (AID 161);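 also: 0% = growth of cultures given vehicle only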
- cond: S. cerevisiae sgs1 mgt1 strain, at 50.0 µM, active compounds read high
- Procedure: Growth inhibition of yeast strains with defined genetic alterations is measured as a screen for potential anti-cancer activity. Selected strains with alterations in DNA damage repair or cell cycle control were exposed to compounds and growth inhibition was measured relative to vehicle treated controls. The strain used in this assay is sgs1 mgt1
This is part of a sample that, as a whole, favours compounds with a hit. Of some 79,000 tested, about 15% had one in any assay.
measurement_label: growth inhibition (%)
Respond numerically; units are % and should not be typed.

Q) Which growth inhibition value is on record for Cc1ccc(S(=O)(=O)c2scc(-c3ccccc3)c2C)cc1 ?
A) -31.1

Q) Record request: growth inhibition value, item N=c1ccc2ccccc2n1O
A) -4.2

Q) # growth inhibition lookup, item O=N[O-].O=N[O-].[Co].[NH-]CC[N-]CC[N-]CC[NH-]
A) 1.9

Q) Need growth inhibition, item CCC(C)N1C(=O)c2ccccc2C1=O (configuration not stated)
A) 17.1

Q) Endpoint output: growth inhibition of COc1ccccc1Nc1nc2c([nH]1)c(=O)n(C)c(=O)n2C . Value?
A) -41.9

Q) Fill in the blank: the reported growth inhibition of N#CC(=O)Nc1cccc(Cl)c1 is ____.
A) -16.4

Q) Given the molecule C#CCNCCCn1c(=O)nc2n(-c3ccccc3)c3ccccc3nc-2c1=O , what is its reported growth inhibition?
A) 27.1

Q) Would you kindly share the measured growth inhibition for CC(C)(C)C(=O)Oc1ccc(/C=C/C(=O)c2ccc(OC(=O)C(C)(C)C)cc2)cc1 ?
A) -28

Q) So what's the measured growth inhibition for this one? CCc1cccc(C(C)(C)C)c1NC(=S)N/C=C(/C#N)C(N)=O
A) 16.9

Q) Bench note: what growth inhibition did NC(=S)SC1=NNC2(C(=O)N1)c1ccccc1-c1ccccc12 show?
A) 14.2

Q) # get_value(readout='growth inhibition', item= O=C(NCCNC(=O)c1cc(Cl)cc(Cl)c1O)c1cc(Cl)cc(Cl)c1O )
A) 9.3

Q) What measured growth inhibition goes with O=C(c1ccccc1)C1CCCCC1 ?
A) -6.25

Q) Quick check: growth inhibition of COc1cc(/C=N/NC2=NCCCN2)ccc1O ?
A) 7.75

Q) Tell me the measured growth inhibition of [Cl-].[Nd+3].[O-]/N=C(\c1ccccc1)c1ccccn1.[O-]/N=C(\c1ccccc1)c1ccccn1.[O-]/N=C(\c1ccccc1)c1ccccn1 , please.
A) 42.6

Q) Could you tell me which growth inhibition is on file for Cc1cccc(CC(O)c2ccc(C=O)cc2)n1 (configuration not stated) ?
A) 6.75

Q) For Cc1ccc(S(=O)(=O)N/N=C(\C(=O)Nc2cccc([N+](=O)[O-])c2)c2nc3ccc([N+](=O)[O-])cc3[nH]c2=O)cc1 , what is its reported growth inhibition?
A) 3.65

Q) Request the reported growth inhibition associated with C(CCc1nnc2c(n1)CCCC2)Cc1nnc2c(n1)CCCC2
A) -1.05

Q) For CC(=O)O[C@]12CCCCCCC1C1(O)C(O)CCC[C@H]12 (some centres not stated) , what is its reported growth inhibition?
A) -53.2

Q) Item under review: CC12CCC(=O)OC1(C)OC(=O)CC2 (configuration not stated) . Reported growth inhibition?
A) 2.85

Q) I have this molecule here, CCCCS(=O)(=O)CCC(N)P(=O)(O)O (configuration not stated) , and I need its recorded growth inhibition.
A) -43.2

Q) For the molecule shown here, COCC(C)(CO)CC(C)CO (configuration not stated) , give the reported growth inhibition.
A) -0.15

Q) I would be grateful if you could share the reported growth inhibition for CC(=O)/C=C/C1=C(C)CCCC1(C)C (tested in a mixture with another compound) .
A) 9.2

Q) For the molecule shown here, COc1cc(/C=C/C=C2\CC/C(=C\C=C\c3ccc(O)c(OC)c3)C2=O)ccc1O , give the reported growth inhibition.
A) 31.4

Q) // query growth inhibition value for entry Nc1ccc2ccc(S(=O)(=O)O)cc2c1
A) -31.4

Q) Given CC(CS(=O)(=O)Cc1ccccc1)C(N)=O (configuration not stated) , state its recorded growth inhibition.
A) 14.3

Q) So what does the record say about growth inhibition for c1ccc2c(-c3nn[nH]n3)nccc2c1 ?
A) -6.5

Q) // lookup growth inhibition for Cc1ccc(C)c(C2NC(=O)c3ccccc3N2)c1 (configuration not stated)
A) -44.8

Q) Given the entry OC1CCCN(CCNN2CCCC2)C1 (configuration not stated) , report its measured growth inhibition.
A) 15.4

Q) May I ask what growth inhibition has been recorded for Cc1ccnc2ccccc12 ?
A) -1.6

Q) Looking for the measured growth inhibition of CC1NC(=O)C2Cc3ccc(O)c(c3)Oc3cccc(c3)C(O)C(C(=O)N2C)N(C)C(=O)C(C)NC(=O)C(Cc2ccc(O)c(O)c2)N(C)C(=O)C(C)NC1=O (configuration not stated) , can you help?
A) 6.6

Q) Reported growth inhibition, molecule CCOC(=O)CCOc1ccccc1 : ____
A) 8.45

Q) Item COc1nc(NC2OCC(O)C(O)C2O)c(NC2OCC(O)C(O)C2O)c(=O)n1C (configuration not stated) has what recorded growth inhibition?
A) -11.6

Q) Requested field: growth inhibition. Item: CCn1cc(C(=O)C(=O)N(C)C)c2ccccc21
A) -2.5

Q) Endpoint output: growth inhibition of O=c1[nH]cnc2nn(C3OC(CO)C(O)C3O)nc12 (configuration not stated) . Value?
A) 1.5

Q) Given the entry Cc1nc(-c2ccccc2)[nH]c(=O)c1Cc1cc2c(cc1O)OCC2 , report its measured growth inhibition.
A) 6.9

Q) Bench note: what growth inhibition did CCOC(=O)c1c[nH]c2c(Cl)c(C)ccc2c1=O show?
A) -17.6

Q) So what does the record say about growth inhibition for COC(=O)C1CCC(=O)N1Cc1csc(-c2ccccc2)n1 (configuration not stated) ?
A) -6.8

###

- protocol: NCI Yeast Anticancer Drug Screen. Data for the sgs1 mgt1 strain (AID 161);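 also: 0% = growth of cultures given vehicle only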
- cond: S. cerevisiae sgs1 mgt1 strain, at 50.0 µM, active compounds read high
About 79,000 compounds went through this panel and 15% of them were active in at least one assay; those are over-represented in the sample as a whole.
For each of the compounds below, state its growth inhibition.
Number only, in %; omit the unit.

Q) # growth inhibition lookup, item Cc1no[n+]([O-])c1C(=O)NN
A) -14.3

Q) # get_value(readout='growth inhibition', item= CCN(CC)CC1CCCCN1 (stereo not drawn) )
A) 1.95

Q) I'd like to know its growth inhibition. The compound in question is O=C(O)/C(=N\O)c1cnnn1-c1ccccc1
A) -8.45

Q) May I ask what growth inhibition has been recorded for COCCN(CCOC)C(=O)Nc1cccc(Cl)c1 ?
A) 15.9

Q) growth inhibition for CSc1ccc(NC(=O)Nc2cc(C)c(C)cc2C)cc1 ?
A) 6.75

Q) Return reported growth inhibition; argument: C/C=C(/C)C(=O)O[C@@H]1c2c(C)coc2C(=O)[C@@]2(OC(C)=O)CCC[C@@](C)(O)[C@@]12C
A) 24.3

Q) Given the compound CCOC(=O)N1CCN(CCO)CC1 , what is its reported growth inhibition?
A) 2.35

Q) So what's the measured growth inhibition for this one? CC(=O)Oc1ccc(Nn2c3ccccc3c3ccccc32)c(C)c1
A) 36.1

Q) What measured growth inhibition goes with CCOC(=O)C1=C(C)OC(=O)CC1C (stereo not drawn) ?
A) 3.75

Q) Please give the measured growth inhibition for this compound: CCC(CC)COC(=O)c1ccccc1C
A) -0.85

Q) I am curious: what growth inhibition value has been reported for COC(=O)C1CCC=CC1OC(C)=O (stereo not drawn) ?
A) 2.6

Q) Report growth inhibition for CN1CCN(C(=S)N(C(=O)c2ccc(Cl)cc2)C2CCCCC2)CC1 please.
A) -54.8

Q) Look at this compound and give its reported growth inhibition. C/C=C(/c1ccccc1)c1ccc(N(C)C)cc1
A) -10.1

Q) Look at this compound and give its reported growth inhibition. O=C1CC[C@@H](C(=O)Nc2cccc3ccccc23)N1
A) 8.5

Q) For the compound CCN=C(N(CC)CC)N(CC)CC , what growth inhibition is on record?
A) 2.95

Q) For the compound COC(=O)C(N)C(C)(C)S (stereo not drawn) , what growth inhibition is on record?
A) -3.65

Q) Given the compound CC(=O)OCC(OC(C)=O)C(OC(C)=O)C(/C=C/[N+](=O)[O-])OC(C)=O (stereo not drawn) , what is its reported growth inhibition?
A) 2.4

Q) Would you kindly share the measured growth inhibition for C=CCc1oc(C)nc1CCCC ?
A) 16.7

Q) Query: growth inhibition; subject: CC(=O)OC(CC1(C)C(C)CCC23COC(=O)C2=CCCC31)c1ccoc1 (stereo not drawn)
A) 85.7

Q) growth inhibition for O=C(O)C(Sc1ccccc1)c1ccccc1 (stereo not drawn) ?
A) -0.05

Q) What growth inhibition value was documented for this compound, COc1ccc(/C=[N+](\[O-])c2ccccc2)cc1 (tested in a mixture with another compound) ?
A) 4.1

Q) Which growth inhibition is listed for O=S(=O)(C/C=C/COc1ccccc1)c1ccc2ccccc2c1 ?
A) 23.8

Q) Returns the measured growth inhibition for the input compound. Input: CCOC(=O)C1(C)CCCC1=O (stereo not drawn)
A) 3.95
